Data provenance is paper PMC7367873.

Recorded Difference (log2), PP1 vs untreated by entry
- Test system: GFP-14-3-3β and its binding proteins
- procedureSummary: GFP-14-3-3β co-IP with LC-MS/MS label-free quantification, untreated versus PP1c-treated
- Parameters: species or system human
- testParameters: log2 difference; pairwise comparison PP1 vs untreated, label-free quantification, 3 replicates each
When you answer, write just the number.

PGAM5 (protein, UniProt Q96HS1 1-289, looked up) Serine/threonine-protein …: MAFRQALQLAACGLAGGSAAVLFSAVAVGKPRAGGDAEPRPAEPPAWAGGARPGPGVWDPNWDRREPLSLINVRKRNVESGEEELASKLDHYKAKATRHIFLIRHSQYHVDGSLEKDRTLTPLGREQAELTGLRLASLGLKFNKIVHSSMTRAIETTDIISRHLPGVCKVSTDLLREGAPIEPDPPVSHWKPEAVQYYEDGARIEAAFRNYIHRADARQEEDSYEIFICHANVIRYIVCRALQFPPEGWLRLSLNNGSITHLVIRPNGRVALRTLGDTGFMPPDKITRS | 2.342
VAPA (protein, UniProt Q9P0L0 2-249, looked up) Vesicle-associated membrane …: ASASGAMAKHEQILVLDPPTDLKFKGPFTDVVTTNLKLRNPSDRKVCFKVKTTAPRRYCVRPNSGIIDPGSTVTVSVMLQPFDYDPNEKSKHKFMVQTIFAPPNTSDMEAVWKEAKPDELMDSKLRCVFEMPNENDKLNDMEPSKAVPLNASKQDGPMPKPHSVSLNDTETRKLMEECKRLQGEMMKLSEENRHLRDEGLRLRKVAHSDKPGSTSTASFRDNVTSPLPSLLVVIAAIFIGFFLGKFIL | 1.6514
CCDC124 (protein, UniProt Q96CT7 1-223, looked up) Coiled-coil domain-containing …: MPKKFQGENTKSAAARARRAEAKAAADAKKQKELEDAYWKDDDKHVMRKEQRKEEKEKRRLDQLERKKETQRLLEEEDSKLKGGKAPRVATSSKVTRAQIEDTLRRDHQLREAPDTAEKAKSHLEVPLEENVNRRVLEEGSVEARTIEDAIAVLSVAEEAADRHPERRMRAAFTAFEEAQLPRLKQENPNMRLSQLKQLLKKEWLRSPDNPMNQRAVPFNAPK | 1.402
BST2 (protein, UniProt Q10589 1-161, looked up) Bone marrow stromal antigen 2: MASTSYDYCRVPMEDGDKRCKLLLGIGILVLLIIVILGVPLIIFTIKANSEACRDGLRAVMECRNVTHLLQQELTEAQKGFQDVEAQAATCNHTVMALMASLDAEKAQGQKKVEELEGEITTLNHKLQDASAEVERLRRENQVLSVRIADKKYYPSSQDSS | 1.808
SSR4 (protein, UniProt P51571 24-173, looked up) Translocon-associated protein …: EACLEPQITPSYYTTSDAVISTETVFIVEISLTCKNRVQNMALYADVGGKQFPVTRGQDVGRYQVSWSLDHKSAHAGTYEVRFFDEESYSLLRKAQRNNEDISIIPPLFTVSVDHRGTWNGPWVSTEVLAAAIGLVIYYLAFSAKSHIQA | 2.257
TMEM33 (protein, UniProt P57088 2-247, looked up) Transmembrane protein 33: ADTTPNGPQGAGAVQFMMTNKLDTAMWLSRLFTVYCSALFVLPLLGLHEAASFYQRALLANALTSALRLHQRLPHFQLSRAFLAQALLEDSCHYLLYSLIFVNSYPVTMSIFPVLLFSLLHAATYTKKVLDARGSNSLPLLRSVLDKLSANQQNILKFIACNEIFLMPATVFMLFSGQGSLLQPFIYYRFLTLRYSSRRNPYCRTLFNELRIVVEHIIMKPACPLFVRRLCLQSIAFISRLAPTVP | 1.645
NAP1L1 (protein, UniProt P55209 2-388, looked up) Nucleosome assembly protein …: ADIDNKEQSELDQDLDDVEEVEEEETGEETKLKARQLTVQMMQNPQILAALQERLDGLVETPTGYIESLPRVVKRRVNALKNLQVKCAQIEAKFYEEVHDLERKYAVLYQPLFDKRFEIINAIYEPTEEECEWKPDEEDEISEELKEKAKIEDEKKDEEKEDPKGIPEFWLTVFKNVDLLSDMVQEHDEPILKHLKDIKVKFSDAGQPMSFVLEFHFEPNEYFTNEVLTKTYRMRSEPDDSDPFSFDGPEIMGCTGCQIDWKKGKNVTLKTIKKKQKHKGRGTVRTVTKTVSNDSFFNFFAPPEVPESGDLDDDAEAILAADFEIGHFLRERIIPRSVLYFTGEAIEDDDDDYDEEGEEADEEGEEEGDEENDPDYDPKKDQNPAEC | 1.883
PA2G4 (protein, UniProt Q9UQ80 2-394, looked up) Proliferation-associated …: SGEDEQQEQTIAEDLVVTKYKMGGDIANRVLRSLVEASSSGVSVLSLCEKGDAMIMEETGKIFKKEKEMKKGIAFPTSISVNNCVCHFSPLKSDQDYILKEGDLVKIDLGVHVDGFIANVAHTFVVDVAQGTQVTGRKADVIKAAHLCAEAALRLVKPGNQNTQVTEAWNKVAHSFNCTPIEGMLSHQLKQHVIDGEKTIIQNPTDQQKKDHEKAEFEVHEVYAVDVLVSSGEGKAKDAGQRTTIYKRDPSKQYGLKMKTSRAFFSEVERRFDAMPFTLRAFEDEKKARMGVVECAKHELLQPFNVLYEKEGEFVAQFKFTVLLMPNGPMRITSGPFEPDLYKSEMEVQDAELKALLQSSASRKTQKKKKKKASKTAENATSGETLEENEAGD | 1.519

Briefly, Difference (log2), PP1 vs untreated measured for LSM12 (protein, UniProt Q3MHD2 2-195, looked up) Protein LSM12: AAPPGEYFSVGSQVSCRTCQEQRLQGEVVAFDYQSKMLALKCPSSSGKPNHADILLINLQYVSEVEIINDRTETPPPLASLNVSKLASKARTEKEEKLSQAYAISAGVSLEGQQLFQTIHKTIKDCKWQEKNIVVMEEVVITPPYQVENCKGKEGSALSHVRKIVEKHFRDVESQKILQRSQAQQPQKEAALSS : 1.729

// PHB (protein, UniProt P35232 2-272, looked up) Prohibitin 1: AAKVFESIGKFGLALAVAGGVVNSALYNVDAGHRAVIFDRFRGVQDIVVGEGTHFLIPWVQKPIIFDCRSRPRNVPVITGSKDLQNVNITLRILFRPVASQLPRIFTSIGEDYDERVLPSITTEILKSVVARFDAGELITQRELVSRQVSDDLTERAATFGLILDDVSLTHLTFGKEFTEAVEAKQVAQQEAERARFVVEKAEQQKKAAIISAEGDSKAAELIANSLATAGDGLIELRKLEAAEDIAYQLSRSRNITYLPAGQSVLLQLPQ : Difference (log2), PP1 vs untreated value = 1.5807
